Target: T1, O14-AA
T1 chain: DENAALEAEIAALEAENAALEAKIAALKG
Test: two-hybrid library CCmax;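 further: natural log of median RNA to DNA barcode read ratio; higher means stronger binding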
Settings: mean of both orientations
Observable: interaction score

Here are 6 binders together with their reported answers.
DKNAALKAEIAALEAEIAALEAENAALEG [4H3587-AA] | -1.35
DKIAALKAENAALEAKIAALKAKNAALKG [4H2736-AA] | -0.38
KELQAIEKQLAQLQWKAQARKKKLAQLKK [4H_APH] | -1.65
DKNAALKAENAALEAEIAALEAEIAALEG [O1-AA] | -1.66
DEIAALEAKNAALKAEIAALEAENAALEG [4H451-AA] | 0.209
ASIRRLEQEVNQERSRMAYLQTLLAKIEQ [4H_BCR] | -0.776

P. DEIAALEAENAALEAEIAALEAKIAALKG [4H134-AA]
Q. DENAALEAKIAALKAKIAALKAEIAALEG [4H1385-AA]
Exam item: Lab note: check whether P or Q has the lower measured interaction score. Please indicate the selected item by its label.
Marked response: P

P. DKNAALKAKIAALKAKNAALKAEIAALEG [O13-AA]
Q. DEIAALEAEIAALEAKIAALKAENAALEG [4H43-AA]
Exam item: Response body: label of entry with the larger interaction score; valid values P , Q . Please indicate the selected item by its label.
Marked response: P
(P: 2.19, Q: -0.845)
